- Tested on: Escherichia coli
- assay.remarks: Antibacterial activity against Escherichia coli ATCC 25922 after 3 to 4 days by serial plate dilution method; further: test concentration or dose not given here
- Format: functional
metric.name: diameter of the inhibition zone (DIZ) (mm)

>  <smiles.input>
O=C1CC(CCc2ccc3c(c2)OCO3)=NN1c1cc(C(F)(F)F)nc2c(C(F)(F)F)cccc12

>  <recorded.number>
21

$$$$
>  <smiles.input>
COCCNC(=S)NNc1cc(C(F)(F)F)nc2c(C(F)(F)F)cccc12

>  <recorded.number>
10

$$$$
>  <smiles.input>
FC(F)(F)c1cc(N/N=C/C2CCCCC2)c2cccc(C(F)(F)F)c2n1

>  <recorded.number>
25

$$$$
>  <smiles.input>
FC(F)(F)Oc1cccc(/C=N/Nc2cc(C(F)(F)F)nc3c(C(F)(F)F)cccc23)c1

>  <recorded.number>
24

$$$$
>  <smiles.input>
CCCCCCC/C=N/Nc1cc(C(F)(F)F)nc2c(C(F)(F)F)cccc12

>  <recorded.number>
24

$$$$

----------
MIC by entry:
- System: Pseudomonas aeruginosa
- assay.remarks: Antibacterial activity against Pseudomonas aeruginosa ATCC 27853 after 3 to 4 days by serial plate dilution method
- Assay type: functional
- reported.conditions: Pseudomonas aeruginosa, ATCC 27853

>  <smiles.input>
FC(F)(F)c1cc(N/N=C/c2ccc3nonc3c2)c2cccc(C(F)(F)F)c2n1

>  <MIC (µg/mL)>
6.25

$$$$
>  <smiles.input>
CCCCCNC(=O)NNc1cc(C(F)(F)F)nc2c(C(F)(F)F)cccc12

>  <MIC (µg/mL)>
12.5

$$$$
>  <smiles.input>
FC(F)(F)c1cc(N/N=C/c2cocc2Br)c2cccc(C(F)(F)F)c2n1

>  <MIC (µg/mL)>
50

$$$$
>  <smiles.input>
Cn1cc(Cl)c(/C=N/Nc2cc(C(F)(F)F)nc3c(C(F)(F)F)cccc23)n1

>  <MIC (µg/mL)>
6.25

$$$$
>  <smiles.input>
COc1ccc(/C=N/Nc2cc(C(F)(F)F)nc3c(C(F)(F)F)cccc23)cc1O

>  <MIC (µg/mL)>
12.5

$$$$

----------
- System: Escherichia coli
- assay.remarks: Antibacterial activity against Escherichia coli ATCC 25922 after 3 to 4 days by serial plate dilution method; further: test concentration or dose not given here
- Format: functional
diameter of the inhibition zone (DIZ) by entry:
metric.name: diameter of the inhibition zone (DIZ)

>  <smiles.input>
O=C1CC(c2ccccc2)=NN1c1cc(C(F)(F)F)nc2c(C(F)(F)F)cccc12

>  <metric.name>
diameter of the inhibition zone (DIZ)

>  <result>
10 mm

$$$$
>  <smiles.input>
FC(F)(F)c1cc(N/N=C/c2ccc3nonc3c2)c2cccc(C(F)(F)F)c2n1

>  <metric.name>
diameter of the inhibition zone (DIZ)

>  <result>
22 mm

$$$$
>  <smiles.input>
O=C1CC(c2ccncc2)=NN1c1cc(C(F)(F)F)nc2c(C(F)(F)F)cccc12

>  <metric.name>
diameter of the inhibition zone (DIZ)

>  <result>
10 mm

$$$$
>  <smiles.input>
FC(F)(F)c1cc(N/N=C/c2cccs2)c2cccc(C(F)(F)F)c2n1

>  <metric.name>
diameter of the inhibition zone (DIZ)

>  <result>
<10 mm

$$$$
>  <smiles.input>
COc1ccc(/C=N/Nc2cc(C(F)(F)F)nc3c(C(F)(F)F)cccc23)cc1O

>  <metric.name>
diameter of the inhibition zone (DIZ)

>  <result>
13 mm

$$$$
